target: MRP2 (ABCC2) (Homo sapiens, UniProt Q92887); assay: in vitro; conditions: probe estradiol-17-beta-glucuronide;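 also: Inside-out membrane vesicles from Sf9 insect cells expressing human MRP2, measuring uptake of the estradiol glucuronide substrate, expressed as percent of untreated control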
Sequence (Q92887 whole entry): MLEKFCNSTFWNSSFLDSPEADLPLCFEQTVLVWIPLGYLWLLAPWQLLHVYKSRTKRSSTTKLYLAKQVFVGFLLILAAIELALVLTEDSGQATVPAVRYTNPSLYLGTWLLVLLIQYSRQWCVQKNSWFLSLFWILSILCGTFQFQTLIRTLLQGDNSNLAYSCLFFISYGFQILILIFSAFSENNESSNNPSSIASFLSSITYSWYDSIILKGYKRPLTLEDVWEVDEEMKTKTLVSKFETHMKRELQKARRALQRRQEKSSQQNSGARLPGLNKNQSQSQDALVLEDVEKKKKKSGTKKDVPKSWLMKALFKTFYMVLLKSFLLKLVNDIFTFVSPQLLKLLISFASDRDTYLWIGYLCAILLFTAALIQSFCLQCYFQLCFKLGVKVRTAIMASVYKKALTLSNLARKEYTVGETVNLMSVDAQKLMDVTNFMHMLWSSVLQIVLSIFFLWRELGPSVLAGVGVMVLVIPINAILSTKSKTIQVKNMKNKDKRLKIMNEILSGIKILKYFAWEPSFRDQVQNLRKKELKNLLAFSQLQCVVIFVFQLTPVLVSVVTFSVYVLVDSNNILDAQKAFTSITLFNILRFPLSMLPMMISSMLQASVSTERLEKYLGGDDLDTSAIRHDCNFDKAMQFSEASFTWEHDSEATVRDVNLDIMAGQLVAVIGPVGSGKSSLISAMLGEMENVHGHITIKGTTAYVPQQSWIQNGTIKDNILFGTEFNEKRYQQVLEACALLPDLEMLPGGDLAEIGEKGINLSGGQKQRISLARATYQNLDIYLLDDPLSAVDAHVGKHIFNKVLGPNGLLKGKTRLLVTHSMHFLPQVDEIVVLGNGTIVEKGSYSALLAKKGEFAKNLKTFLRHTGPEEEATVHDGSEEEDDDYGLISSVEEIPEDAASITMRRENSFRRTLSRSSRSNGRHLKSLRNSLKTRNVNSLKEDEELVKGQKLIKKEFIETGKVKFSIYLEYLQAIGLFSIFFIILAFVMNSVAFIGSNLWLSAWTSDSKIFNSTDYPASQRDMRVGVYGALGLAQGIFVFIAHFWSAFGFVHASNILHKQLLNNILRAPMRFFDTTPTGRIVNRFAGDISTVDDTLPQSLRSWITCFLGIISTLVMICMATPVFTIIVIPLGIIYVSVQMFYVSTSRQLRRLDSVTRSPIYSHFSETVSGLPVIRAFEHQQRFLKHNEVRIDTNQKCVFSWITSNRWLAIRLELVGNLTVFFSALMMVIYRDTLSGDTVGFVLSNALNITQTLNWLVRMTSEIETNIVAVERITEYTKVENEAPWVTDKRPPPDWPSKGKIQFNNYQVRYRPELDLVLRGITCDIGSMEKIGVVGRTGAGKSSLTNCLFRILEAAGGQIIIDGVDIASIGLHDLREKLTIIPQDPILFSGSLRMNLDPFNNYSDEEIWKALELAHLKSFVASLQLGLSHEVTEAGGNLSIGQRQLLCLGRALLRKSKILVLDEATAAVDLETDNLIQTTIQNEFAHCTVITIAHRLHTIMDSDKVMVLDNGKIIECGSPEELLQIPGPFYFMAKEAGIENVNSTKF
Description: Effect on human MRP2-mediated estradiol-17-beta-glucuronide transport in Sf9 cells inverted membrane vesicles relative to control
Listed here are molecules together with their documented activity.
propertyLabel: activity (%)

> print(dat)
                                    molecule  obsvalue
 1  C=C[C@H]1C[N@@]2CC[C@H]1C[C@H]2[C@H](O)c1ccnc2ccc(OC)cc12        75
 2  CC1=C(CC(=O)O)c2cc(F)ccc2/C1=C\c1ccc([S+](C)[O-])cc1 (stereo not drawn)       151
 3  CC(C)OC(=O)C(C)(C)Oc1ccc(C(=O)c2ccc(Cl)cc2)cc1 [FENOFIBRATE]        46
 4  O=C1OC(c2ccc(O)c(S(=O)(=O)O)c2)(c2ccc(O)c(S(=O)(=O)O)c2)c2c(Br)c(Br)c(Br)c(Br)c21 [SULFOBROMOPHTHALEIN SODIUM]         5
 5  Cc1onc(-c2c(F)cccc2Cl)c1C(=O)N[C@@H]1C(=O)N2[C@@H]1SC(C)(C)[C@@H]2C(=O)O        73
 6  COc1ccc2c(c1)[C@]13CCCC[C@@H]1[C@H](C2)N(C)CC3        57
 7  O=c1c(O)c(-c2ccc(O)cc2O)oc2cc(O)cc(O)c12        50
 8  COc1cc2nc(N3CCN(C(=O)c4ccco4)CC3)nc(N)c2cc1OC        78
 9  NS(=O)(=O)c1cc(C(=O)O)c(NCc2ccco2)cc1Cl [FUROSEMIDE]       118
10  CC/C(=C(\c1ccccc1)c1ccc(OCCN(C)C)cc1)c1ccccc1         8
11            CN(C)CCC=C1c2ccccc2CCc2ccccc21        51
12  CC(C(=O)O)c1cccc(C(=O)c2ccccc2)c1 (stereo not drawn)       120
13  COc1ccc2c(c1)c(CC(=O)O)c(C)n2C(=O)c1ccc(Cl)cc1       308
14   CCc1oc2ccccc2c1C(=O)c1cc(Br)c(O)c(Br)c1        11
15  COCCc1ccc(OCC(O)CNC(C)C)cc1 (stereo not drawn)        72
16  Cc1ccc(-c2cc(C(F)(F)F)nn2-c2ccc(S(N)(=O)=O)cc2)cc1        46
17  COc1ccc(CCN2CCC(Nc3nc4ccccc4n3Cc3ccc(F)cc3)CC2)cc1        36
18  Cc1cnc(C(=O)NCCc2ccc(S(=O)(=O)NC(=O)NC3CCCCC3)cc2)cn1 [GLIPIZIDE]        81
19  C[C@]12CCC(=O)C=C1CC[C@@H]1[C@@H]2[C@@H](O)C[C@@]2(C)[C@H]1CC[C@]2(O)C(=O)CO [HYDROCORTISONE]       124
20            CNCC[C@@H](Oc1ccccc1C)c1ccccc1       109
21  CCc1c2c(nc3ccc(OC(=O)N4CCC(N5CCCCC5)CC4)cc13)-c1cc3c(c(=O)n1C2)COC(=O)[C@]3(O)CC       101
22         O=c1cc(-c2ccccc2)oc2cc(O)cc(O)c12       110
23  CC[C@H](C)C(=O)O[C@H]1C[C@H](O)C=C2C=C[C@H](C)[C@H](CC[C@@H](O)C[C@@H](O)CC(=O)O)[C@H]21       135

Where do these numbers come from? They come from ChEMBL document CHEMBL1150338.
